Data origin, for the record: ChEMBL document CHEMBL5316357

test: Clearance in mouse plasma at 1 mg/kg,iv
Assay type: ADME, organism-based
parameter.measured: clearance (mL/min/kg)

a: CCOC(=O)C1=C(CN2C[C@H]3CN(C(C)(C)C)C(=O)N3C[C@@H]2C(=O)O)NC(c2nccs2)=N[C@H]1c1ccc(F)cc1Cl
b: CCOC(=O)C1=C(CN2CCN3C(=O)N(CC(C)(C)C(=O)O)C[C@@H]3C2)NC(c2nccs2)=N[C@H]1c1ccc(F)cc1Cl
c: CCOC(=O)C1=C(CN2CCN3C(=O)N(CC(C)(C)C(=O)O)C[C@@H]3C2)NC(c2nccs2)=N[C@H]1c1cccc(F)c1Cl
d: CCOC(=O)C1=C(CN2CCN3C(=O)N(CC(C)(C)C(=O)O)C[C@@H]3C2)NC(c2nccs2)=N[C@H]1c1cccc(F)c1C
Ranking field: clearance; order: falling. Give me the labels in the order the question wants.
a, b, c, d
(a: 248 mL/min/kg, b: 58 mL/min/kg, c: 35 mL/min/kg, d: 20 mL/min/kg)

---

test: Induction of CYP3A4 mRNA expression level in human hepatocytes at 10 uM incubated for 24 hrs by q-PCR analysis
Assay type: ADME, cell-based, Hepatocyte
parameter.measured: Activity (%)

P: COC(=O)C1=C(CN2CCN3C(=O)N(C4CCC(C(=O)O)CC4)C[C@@H]3C2)NC(c2nccs2)=N[C@H]1c1ccc(F)cc1Cl (stereo partly specified)
Q: COC(=O)C1=C(CN2CCOC[C@H]2C(=O)O)N=C(c2nccs2)N[C@H]1c1ccc(F)cc1Cl
R: CCOC(=O)C1=C(CN2C[C@H]3CN(C(C)(C)C)C(=O)N3C[C@@H]2C(=O)O)NC(c2nccs2)=N[C@H]1c1ccc(F)cc1Cl
S: COC(=O)C1=C(CN2CCc3c([nH][nH]c3=O)C2)NC(c2nccs2)=N[C@H]1c1ccc(F)cc1Cl
T: CCOC(=O)C1=C(CN2C[C@H]3CN(C)C(=O)N3C[C@@H]2C(=O)O)NC(c2nccs2)=N[C@H]1c1cccc(F)c1Cl
List by increasing Activity. Write the labels, ordered according to the request.
P, T, R, S, Q

I: COC(=O)C1=C(CN2CCN3C(=O)N(CCC(C)(C)C(=O)O)C[C@@H]3C2)NC(c2nccs2)=N[C@H]1c1ccc(F)cc1Cl
II: COC(=O)C1=C(CN2CCN3C(=O)N(CC(C)(C)C(=O)O)C[C@@H]3C2)NC(c2nccs2)=N[C@H]1c1ccc(F)cc1Cl
III: CCOC(=O)C1=C(CN2CCN3C(=O)N(CC(C)C(=O)O)C[C@@H]3C2)NC(c2nccs2)=N[C@H]1c1ccc(F)cc1Cl (stereo partly specified)
IV: COC(=O)C1=C(CN2CCN3C(=O)CC[C@@H]3C2)NC(c2nccs2)=N[C@H]1c1ccc(F)cc1Cl
Put the molecules in ascending order of Activity. The reply should contain the labels ordered as requested.
I, II, III, IV
(I: 0%, II: 0.6%, III: 2.4%, IV: 44%)

---

test: Oral bioavailability in male Wistar Han rat at 30 mg/kg by LC-MS/MS analysis
Type: ADME, organism-based
study.conditions: in vivo
parameter.measured: bioavailability (%)
The reply should contain only the number, in %.

What does the data say about its bioavailability? Entry: `CCOC(=O)C1=C(CN2CCN3C(=O)N(CC(C)(C)C(=O)O)C[C@@H]3C2)NC(c2nccs2)=N[C@H]1c1cccc(F)c1C`
50
